- Test system: U2OS
- METHOD_NOTES: Incucyte cell viability with U2OS; also: unitless GR value; below 1 slowed growth and below 0 cell loss
- Assay type: toxicity, cell-based
- MEASUREMENT_CONDITIONS: human, 6 h, 10 µM, compound concentration 10 uM, replicate number 1, timepoint 6 hours
READOUT_LABEL: Growth Rate

compound=CC(C)Oc1ccc(-c2c[nH]cc2CN(C)CCO)cc1 target_desc=U2OS result_number=0.97
compound="CSc1ccccc1N1CCN(CCCCCC(=O)NC2CCCc3ccccc32)CC1.Cl (stereo not drawn)" target_desc=U2OS result_number=0.17
compound=CO[C@H]1CC[C@@H](C(=O)c2ccc3nc4c(cc3c2)CCCO4)CC1 target_desc=U2OS result_number=-0.12
compound="Cl.Clc1cccc(Cl)c1NC1=NCCN1 [CLONIDINE HYDROCHLORIDE]" target_desc=U2OS result_number=0.87
compound="CN1[C@@H]2CC[C@H]1C[C@@H](OC(=O)C(CO)c1ccccc1)C2 (stereo partly drawn)" target_desc=U2OS result_number=0.86
compound=CCc1nc2c(C)cc(C)nc2[nH]1 target_desc=U2OS result_number=0.2
compound=CCCN(CCC)[C@@H]1CCc2ccc3[nH]c(C#N)cc3c2C1.Cl target_desc=U2OS result_number=0.8
compound="O=C(O)CCCCCC[C@H]1C(=O)NC(=O)N1CCC(O)C1CCCCC1 (stereo partly drawn)" target_desc=U2OS result_number=0.65
compound=CC(C)CC(=O)Nc1cncc(-c2ccc3[nH]nc(-c4nc5c(-c6cccc(F)c6)cncc5[nH]4)c3c2)c1 target_desc=U2OS result_number=-0.82
compound="COC(=O)[C@H]1[C@H]2C[C@H]3c4[nH]c5ccccc5c4CCN3C[C@H]2CC[C@@H]1O.Cl [RAUWOLSCINE HYDROCHLORIDE]" target_desc=U2OS result_number=0.53
compound=CN1CCN(c2ccc(Nc3c4ccccc4nc4ccccc34)cc2)CC1.Cl.Cl.O target_desc=U2OS result_number=0.19
compound=CN(c1ncccc1CNc1ccnc(-c2nc3c(F)c(Cl)ccc3[nH]2)n1)S(C)(=O)=O target_desc=U2OS result_number=0.1
compound="CCCN1CCC[C@@H]2Cc3n[nH]cc3C[C@H]21.Cl [QUINPIROLE HYDROCHLORIDE]" target_desc=U2OS result_number=-0.04
compound="Cl.N=C(N)NC(=O)Cc1c(Cl)cccc1Cl [GUANFACINE HYDROCHLORIDE]" target_desc=U2OS result_number=0.84
compound="CCC(=O)OCC(=O)[C@@]1(OC(=O)CC)[C@@H](C)C[C@H]2[C@@H]3CCC4=CC(=O)C=C[C@]4(C)[C@@]3(Cl)[C@@H](O)C[C@@]21C [BECLOMETHASONE DIPROPIONATE]" target_desc=U2OS result_number=0.73
compound=Cc1cc(Nc2ncc(Cl)c(Nc3ccccc3S(=O)(=O)C(C)C)n2)c(OC(C)C)cc1C1CCNCC1 target_desc=U2OS result_number=-0.94
compound="COc1cc2nc(N3CCN(C(=O)C4CCCO4)CC3)nc(N)c2cc1OC.Cl.O.O (stereo not drawn) [TERAZOSIN HYDROCHLORIDE]" target_desc=U2OS result_number=0.56
compound=O=C(O)CCC/C=C\C[C@H]1C(=O)C[C@@H](O)[C@@H]1/C=C/[C@@H](O)CCc1ccccc1 target_desc=U2OS result_number=0.41

Sourced from ChEMBL document CHEMBL5058564
